test system: Staphylococcus aureus; experiment: Antibacterial activity against Methicillin-resistant Staphylococcus aureus after 3 to 7 days by broth dilution assay; assay type: functional
measurement.kind: MIC (µg/mL)
Your answer is read as µg/mL, so omit the unit and give the number.

# annotated cases, reported MIC shown
{"molecule": "CC(C)=CCc1cccc2[nH]c3c(c12)C[C@@H]1CC[C@@]2(O)[C@@]45O[C@@H]4[C@H](O)[C@@H](C(C)(C)O)O[C@H]5CC[C@]2(C)[C@@]31C", "recorded.result": 12.5}
{"molecule": "CC(C)(O)[C@H]1O[C@H]2CC[C@@]3(C)[C@@](O)(CC[C@H]4Cc5c([nH]c6cccc(C[C@H](O)C(C)(C)Cl)c56)[C@@]43C)[C@]23O[C@@H]3[C@@H]1O", "recorded.result": 50}

From here, focus on the item given below.
Which MIC value is on record for O=C(O)c1cn(C2CC2)c2cc(N3CCNCC3)c(F)cc2c1=O [CIPROFLOXACIN] ? 1.56

---

test system: Alternaria sp. 'fragaria'; assay: Antifungal activity against Alternaria fragaria after 3 to 7 days by microbroth dilution method; format: functional
measurement.kind: MIC

Please provide the recorded MIC for `CC(C)(O)[C@H]1O[C@H]2CC[C@@]3(C)[C@@](O)(CC[C@H]4Cc5c([nH]c6cccc(C[C@H](O)C(C)(C)Cl)c56)[C@@]43C)[C@]23O[C@@H]3[C@@H]1O` , tested on Alternaria sp. 'fragaria'. 6.25 to 50 µg/mL

Now try `CC(C)=CCc1cccc2[nH]c3c(c12)C[C@@H]1CC[C@@]2(O)[C@@]45O[C@@H]4[C@H](O)[C@@H](C(C)(C)O)O[C@H]5CC[C@]2(C)[C@@]31C` . 6.25 to 50 µg/mL

Now try `COC(C)(C)[C@@H](O)Cc1cccc2[nH]c3c(c12)C[C@@H]1CC[C@@]2(O)[C@@]45O[C@@H]4[C@H](O)[C@@H](C(C)(C)O)O[C@H]5CC[C@]2(C)[C@@]31C` . 6.25 to 50 µg/mL

Now try `CC(C)=C[C@H]1O[C@H]2[C@H]3O[C@@]34[C@H](CC[C@@]3(C)[C@@]4(O)CC[C@H]4Cc5c([nH]c6cc(C[C@H](O)C(C)(C)O)ccc56)[C@@]43C)O[C@@H]2C(C)(C)O1` . 6.25 to 50 µg/mL

Now try `CC(C)(Cl)[C@H](O)Cc1ccc2c3c([nH]c2c1)[C@@]1(C)[C@@H](CC[C@@]2(O)[C@@]45O[C@@H]4[C@@H]4O[C@H]([C@H]6OC6(C)C)OC(C)(C)[C@H]4O[C@H]5CC[C@@]21C)C3` . 6.25 to 50 µg/mL

Now try CC(=O)N1CCN(c2ccc(OCC3COC(Cn4ccnc4)(c4ccc(Cl)cc4Cl)O3)cc2)CC1 (stereo unspecified) . 0.78 µg/mL
